Origin of values: ChEMBL document CHEMBL1201862

System: SN12C
experiment: NCI tumour cell line growth inhibition, 48 h
Active and inactive are the calls of the source. Rule as the data show it: active = GI50 up to about 1.1 µM and inactive = higher.
Exercise: for every item that follows, state its recorded GI50.

Entry `O=C1c2ccccc2-c2c1c(-c1ccc([N+](=O)[O-])cc1)nc1ccc3ccccc3c21` needs its GI50 filled in; supply it.
> 100 µM (inactive)

Entry CCCCCCCCCCCCCCCC(=O)OC1C(O)C(O)C(O)C(O)C12CO2 (stereo unspecified) needs its GI50 filled in; supply it.
17.5 µM (inactive)

Entry `CCOC(=O)/C(=C\c1ccc(O)c(OC)c1)C(=O)c1ccccc1` needs its GI50 filled in; supply it.
11.1 µM (inactive)

Entry `ClC1=C(Cl)C(Cl)(Cl)c2c3c(c4c(c21)C(Cl)(Cl)C(Cl)=C4Cl)C(Cl)(Cl)C(Cl)=C3Cl` needs its GI50 filled in; supply it.
> 100 µM (inactive)

Entry C=C1C(=O)OC2C1CCC(C)C1(O)C=CC(=O)C21C (stereo unspecified) needs its GI50 filled in; supply it.
> 10 µM (inactive)

Entry `CC1=NN(c2nc(N)nc(-c3sccc3N)n2)C(C)(C)C1` needs its GI50 filled in; supply it.
> 100 µM (inactive)

Entry `O=C1Nc2ccccc2/C1=N/NC(=S)NCc1ccccn1` needs its GI50 filled in; supply it.
1.27 µM (inactive)

Entry O=C(NCc1ccncc1)C1COc2cc(-c3cc(=O)c4ccccc4o3)ccc2O1 (stereo unspecified) needs its GI50 filled in; supply it.
> 100 µM (inactive)

Entry `C=CCNC(=O)ON1C(=O)CCC1=O` needs its GI50 filled in; supply it.
> 100 µM (inactive)

Entry `CN(C)c1ccc(N=O)c(O)c1.CN(C)c1ccc(N=O)c(O)c1.[SiH4]` needs its GI50 filled in; supply it.
12 µM (inactive)

Entry `Cc1ccnc2c1c(=O)c1ccccc1n2C` needs its GI50 filled in; supply it.
30.5 µM (inactive)

----------
Exercise: for every item that follows, state its recorded GI50.
Tested on: LOX IMVI
experiment: NCI tumour cell line growth inhibition, 48 h
Activity calls are given as the source filed them. No stated cut-off is given here; in the data, active = GI50 up to about 1.1 µM and inactive = higher.

Entry O=C(CNC(c1ccccc1)(c1ccccc1)c1ccccc1)NC1CCCCC1NC(=O)CNC(c1ccccc1)(c1ccccc1)c1ccccc1 (stereo unspecified) needs its GI50 filled in; supply it.
> 100 µM (inactive)

Entry `CCSC(SCC)c1cc2c(cc1Br)OCO2` needs its GI50 filled in; supply it.
16.2 µM (inactive)

Entry `CC(=O)N(O)c1ccc(-c2nc3ccccc3s2)cc1` needs its GI50 filled in; supply it.
63.4 µM (inactive)

Entry NC(=O)c1ncn(C2OC(CO)C(O)C2O)c1NC=O (stereo unspecified) needs its GI50 filled in; supply it.
> 100 µM (inactive)

Entry CC(C)CC(NC(=O)C(CI)Cc1ccccc1)C(=O)Nc1ccccc1 (stereo unspecified) needs its GI50 filled in; supply it.
> 100 µM (inactive)

Entry `CC(=O)Nn1cnc(C(=N)C#N)c1N` needs its GI50 filled in; supply it.
> 100 µM (inactive)

Entry `O=c1[nH]c2ccc(CC(=S)N3CCOCC3)cc2s1` needs its GI50 filled in; supply it.
> 100 µM (inactive)

Entry `CC(C)(C)c1ccc2c(c1)S(=O)(=O)Nc1ccccc1NS(=O)(=O)c1cc(C(C)(C)C)ccc1OCCOCCOCCO2` needs its GI50 filled in; supply it.
> 100 µM (inactive)

Entry `CCOC(=O)c1ccc(C(=O)/C(C#N)=C2\CCCN2C)[nH]1` needs its GI50 filled in; supply it.
> 100 µM (inactive)

Entry `O=c1nc2n3c4c(cccc4nc-2c(=O)[nH]1)CCC3` needs its GI50 filled in; supply it.
> 100 µM (inactive)

Entry `O=C(CSc1nc2ccc(I)cc2c(=O)n1Cc1ccccc1)NN1C(=O)c2ccccc2C1=O` needs its GI50 filled in; supply it.
15 µM (inactive)

Entry `C=CCNC(=O)ON1C(=O)CCC1=O` needs its GI50 filled in; supply it.
> 100 µM (inactive)

Entry `Cc1sc(N/N=C2\C(=O)Nc3ccccc32)nc1-c1ccccc1` needs its GI50 filled in; supply it.
12.6 µM (inactive)

Entry `COc1cc(/C=C2\C(=O)N(C(=O)Cc3ccccc3)N=C2C)cc(OC)c1OC` needs its GI50 filled in; supply it.
> 100 µM (inactive)

Entry `OCCCc1cnco1` needs its GI50 filled in; supply it.
> 100 µM (inactive)

Entry Nc1ncnc2c1ncn2CCOC(c1ccccc1)P(=O)(O)O (stereo unspecified) needs its GI50 filled in; supply it.
> 100 µM (inactive)

Entry C=C1C(=O)OC2/C=C(\C)CC/C=C(/C)CC(OC(=O)/C(=C/CO)CO)C12 (stereo unspecified) needs its GI50 filled in; supply it.
23.4 µM (inactive)

Entry `COc1cc2c(c(OC)c1OC)-c1[nH]ncc1CC2` needs its GI50 filled in; supply it.
> 100 µM (inactive)

Entry O=C(Nc1ccc([N+](=O)[O-])cc1[N+](=O)[O-])C(=O)C(C(=O)c1ccc2ccccc2c1)C1OC(=O)c2ccccc21 (stereo unspecified) needs its GI50 filled in; supply it.
16.7 µM (inactive)

Entry `CCOc1ccc2[nH]c3c(C)c4ccncc4c(C)c3c2c1` needs its GI50 filled in; supply it.
1.2 µM (inactive)

Entry `C=CC(C)(C)c1cc([C@@H]2COc3cc(O)ccc3C2=O)c(O)c(OC)c1OC` needs its GI50 filled in; supply it.
16.6 µM (inactive)

Entry COC(=O)C(CCC(=O)CCl)N1C(=O)c2ccccc2C1=O (stereo unspecified) needs its GI50 filled in; supply it.
1.57 µM (inactive)

Entry `CCOC(=O)c1cn2c(n1)sc1cccc(C)c12` needs its GI50 filled in; supply it.
> 100 µM (inactive)

Entry `ClC1=C(Cl)C(Cl)(Cl)c2c3c(c4c(c21)C(Cl)(Cl)C(Cl)=C4Cl)C(Cl)(Cl)C(Cl)=C3Cl` needs its GI50 filled in; supply it.
> 100 µM (inactive)

Entry CC(=O)NN1C(=O)C(Cc2ccccc2)c2ccccc21 (stereo unspecified) needs its GI50 filled in; supply it.
> 100 µM (inactive)

Entry `CN(C)CCOC(=O)c1ccc(N)cc1` needs its GI50 filled in; supply it.
28.7 µM (inactive)

Entry COC1(OC)CC2C(=O)N(Cc3ccccc3)C1C=C2S(=O)(=O)c1ccccc1 (stereo unspecified) needs its GI50 filled in; supply it.
13.4 µM (inactive)

Entry O=[N+]([O-])C1(CO)COC(CCc2ccccc2)OC1 (stereo unspecified) needs its GI50 filled in; supply it.
> 100 µM (inactive)

Entry `CC(C)(C)c1cc(/C=C(\C#N)C(=O)NCCO)cc(C(C)(C)C)c1O` needs its GI50 filled in; supply it.
25.1 µM (inactive)

Entry O=C1C(Cl)C(c2cccc(Br)c2)N1c1c(O)c(Cl)cc(Br)c1Cl (stereo unspecified) needs its GI50 filled in; supply it.
14.5 µM (inactive)

Entry `COc1c(C(=O)O)cccc1-c1cccc(C(=O)NCCN(CCNC(=O)c2cccc(-c3cccc(C(=O)O)c3OC)c2OC)CCNC(=O)c2cccc(-c3cccc(C(=O)O)c3OC)c2OC)c1OC` needs its GI50 filled in; supply it.
32.3 µM (inactive)
